# measurementTarget: T1, corticotropin releasing factor 2 receptor; also: reference of the scale not given here
# T1 sequence (Q13324 whole entry, species assumed, looked up): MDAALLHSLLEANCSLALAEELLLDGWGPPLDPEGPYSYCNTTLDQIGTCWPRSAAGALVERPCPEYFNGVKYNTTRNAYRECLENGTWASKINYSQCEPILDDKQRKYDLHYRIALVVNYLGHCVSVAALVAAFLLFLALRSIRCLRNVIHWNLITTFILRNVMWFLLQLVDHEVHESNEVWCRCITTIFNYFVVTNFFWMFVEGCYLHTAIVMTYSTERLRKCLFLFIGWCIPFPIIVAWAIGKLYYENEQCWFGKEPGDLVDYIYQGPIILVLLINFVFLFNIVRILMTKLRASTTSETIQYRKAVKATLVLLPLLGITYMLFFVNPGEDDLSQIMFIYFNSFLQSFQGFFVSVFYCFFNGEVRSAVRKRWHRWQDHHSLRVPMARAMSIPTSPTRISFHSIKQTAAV
# experiment: cell-based or functional assay
Ends that are not written are not given here.
// no strictly below 90% in CRF2R Emax; yes otherwise

binder="SQEPPISLDLPFYLLREVLEMTKADQLAQQAHSNRKLLDIA-NH2 [SEQ ID NO 96]" classification=no
binder="SQEPPISLDLPTHLLREVLEMTKADQLAQQAHSNRKLLDIA-NH2 [SEQ ID NO 99]" classification=no
binder="IVLSLDVPIGLLQILLEQERQRAAREQATTNARILARV-NH2 [SEQ ID NO 111]" classification=yes
binder="DNPSLSIDLPLYLLRTLLELARTQSQRERAEQNAIIFASV-NH2 [SEQ ID NO 177]" classification=yes

Data origin: patent US20030148958A1
